biological target: D(3) dopamine receptor (Rattus norvegicus, UniProt P19020); set-up: species or system Tissue
Sequence (P19020 whole entry): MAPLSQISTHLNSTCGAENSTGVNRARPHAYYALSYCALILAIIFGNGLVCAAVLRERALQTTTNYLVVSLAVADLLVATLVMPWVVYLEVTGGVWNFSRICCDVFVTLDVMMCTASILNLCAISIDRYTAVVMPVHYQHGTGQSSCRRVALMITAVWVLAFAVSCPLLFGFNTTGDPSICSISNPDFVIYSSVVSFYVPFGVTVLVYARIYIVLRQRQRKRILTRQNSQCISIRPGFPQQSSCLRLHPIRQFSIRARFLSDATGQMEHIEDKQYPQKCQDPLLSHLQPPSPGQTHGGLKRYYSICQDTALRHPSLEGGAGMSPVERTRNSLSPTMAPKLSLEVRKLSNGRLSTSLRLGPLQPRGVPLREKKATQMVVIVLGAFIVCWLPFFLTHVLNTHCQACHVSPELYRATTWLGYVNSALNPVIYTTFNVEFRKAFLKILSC
readout-type: Ki (nM)

Answered examples (5):
CN1CCCN(C2Cn3cccc3Sc3ccc(Cl)cc32)CC1 (racemic)    58
OCCN1CCN(C2Cn3cccc3Sc3ccc(Br)cc32)CC1 (racemic)    10
CCN1CCN(C2Cn3cccc3Sc3ccc(Cl)cc32)CC1 (racemic)    4.5
CN1CCN([C@H]2Cc3ccccc3Sc3ccc(Cl)cc32)CC1    0.4
CN1CCN([C@@H]2Cn3cccc3Sc3ccc(Cl)cc32)CC1    110

1 = CCN1CCN(C2Cn3cccc3Sc3ccc(Br)cc32)CC1 (racemic)
2 = OCCN1CCN(C2Cn3cccc3Sc3ccc(Cl)cc32)CC1 (racemic)
Given the listed records, identify the one among 1 and 2 with higher Ki. Mark your answer with the label of the selected entry.
1
(1: 7.4 nM, 2: 3.6 nM)

###

molecular target: 5-hydroxytryptamine receptor 2A (Rattus norvegicus); experiment: biochemical
Sequence (P14842 whole entry): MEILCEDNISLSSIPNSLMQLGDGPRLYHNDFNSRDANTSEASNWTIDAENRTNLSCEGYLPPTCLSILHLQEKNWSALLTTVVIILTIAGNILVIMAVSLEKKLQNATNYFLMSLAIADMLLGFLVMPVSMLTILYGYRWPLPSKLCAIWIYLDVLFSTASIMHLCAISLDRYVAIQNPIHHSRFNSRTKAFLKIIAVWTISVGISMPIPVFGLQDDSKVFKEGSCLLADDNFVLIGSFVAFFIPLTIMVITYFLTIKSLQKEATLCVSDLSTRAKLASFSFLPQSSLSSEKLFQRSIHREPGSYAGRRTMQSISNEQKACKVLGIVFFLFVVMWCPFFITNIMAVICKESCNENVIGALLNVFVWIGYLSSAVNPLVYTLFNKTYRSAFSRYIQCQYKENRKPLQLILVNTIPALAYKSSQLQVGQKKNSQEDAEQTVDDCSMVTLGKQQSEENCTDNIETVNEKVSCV
pKi: −log10 of the molar value.
readout-type: pKi

Answered examples (5):
OCCN1CCN(C2Cn3cccc3Sc3ccc(Br)cc32)CC1 (racemic)    7.64
CCN1CCN(C2Cn3cccc3Sc3ccc(F)cc32)CC1 (racemic)    8.37
CN1CCCN(C2Cn3cccc3Sc3ccc(Cl)cc32)CC1 (racemic)    7.80
OCCN1CCN(C2Cn3cccc3Sc3ccc(Cl)cc32)CC1 (racemic)    8.06
OCCN1CCN(C2Cn3cccc3Sc3ccc(F)cc32)CC1 (racemic)    8.15

P = CCN1CCN(C2Cn3cccc3Sc3ccc(Cl)cc32)CC1 (racemic)
Q = CCN1CCN(C2Cn3cccc3Sc3ccc(Br)cc32)CC1 (racemic)
R = CN1CCN(C2Cn3cccc3Sc3ccc(Br)cc32)CC1 (racemic)
Ordering: ascending pKi. Could you list the labels in the order requested?
Q, R, P

###

target: Adrenergic receptor alpha-1 (Rattus norvegicus, UniProt P15823+P23944+P43140); format: tissue-based, Frontal cortex
readout-type: Ki (nM)

Before answering, review these 3 worked examples.
CN1CCN([C@H]2Cn3cccc3Sc3ccc(F)cc32)CC1 (stereo in doubt; (-)-6b)    4.5
CN1CCN([C@H]2Cn3cccc3Sc3ccc(F)cc32)CC1 (stereo in doubt; (+)-6b)    12
CN1CCN([C@@H]2Cn3cccc3Sc3ccc(Cl)cc32)CC1    0.82

a = CCN1CCN(C2Cn3cccc3Sc3ccc(F)cc32)CC1 (racemic)
b = OCCN1CCN(C2Cn3cccc3Sc3ccc(F)cc32)CC1 (racemic)
// pick min by Ki: a , b Selection: enter the item's label.
a

###

biological target: Histamine H1 receptor (Rattus norvegicus)
Sequence (P31390 whole entry): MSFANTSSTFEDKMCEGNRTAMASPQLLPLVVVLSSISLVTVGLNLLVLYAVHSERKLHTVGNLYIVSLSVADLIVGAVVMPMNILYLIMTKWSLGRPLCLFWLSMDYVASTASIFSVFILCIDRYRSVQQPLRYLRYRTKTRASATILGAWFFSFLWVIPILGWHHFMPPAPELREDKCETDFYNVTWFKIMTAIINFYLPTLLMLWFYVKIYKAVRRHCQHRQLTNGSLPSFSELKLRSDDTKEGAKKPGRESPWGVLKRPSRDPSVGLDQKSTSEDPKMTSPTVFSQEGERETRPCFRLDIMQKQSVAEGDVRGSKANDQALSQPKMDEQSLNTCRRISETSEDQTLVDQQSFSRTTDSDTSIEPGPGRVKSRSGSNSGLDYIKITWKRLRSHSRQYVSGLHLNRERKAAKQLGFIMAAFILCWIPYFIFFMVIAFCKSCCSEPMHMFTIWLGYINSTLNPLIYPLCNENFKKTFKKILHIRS
readout-type: Ki (nM)
Numeric only. Scale: nM

Find the measured Ki of OCCN1CCN(C2Cn3cccc3Sc3ccc(F)cc32)CC1 (racemic) with Histamine H1 receptor (Rattus norvegicus) as test system.
7.1

###

target: D(1A) dopamine receptor (Rattus norvegicus, UniProt P18901)
Sequence (P18901 whole entry): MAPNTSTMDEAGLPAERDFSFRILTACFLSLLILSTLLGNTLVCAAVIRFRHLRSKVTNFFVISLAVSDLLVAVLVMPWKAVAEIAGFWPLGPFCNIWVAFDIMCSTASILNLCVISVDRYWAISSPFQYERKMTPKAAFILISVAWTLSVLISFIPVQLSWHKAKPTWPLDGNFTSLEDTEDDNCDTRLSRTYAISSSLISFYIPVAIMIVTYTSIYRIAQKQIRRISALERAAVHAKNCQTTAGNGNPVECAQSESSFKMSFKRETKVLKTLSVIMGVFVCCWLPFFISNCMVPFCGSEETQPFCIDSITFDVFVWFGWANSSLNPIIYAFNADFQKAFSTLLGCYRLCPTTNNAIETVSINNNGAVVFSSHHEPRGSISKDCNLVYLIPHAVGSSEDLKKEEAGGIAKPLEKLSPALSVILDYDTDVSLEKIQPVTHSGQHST
readout-type: pKi
When answering, recall that pKi equals minus log10 of the concentration in mol/L, and write that number alone.

Specify the recorded pKi for CSc1ccc2c(c1)C(N1CCN(C)CC1)Cc1ccccc1S2 (stereo unspecified) [METITEPINE] , system: D(1A) dopamine receptor (Rattus norvegicus, UniProt P18901).
8.70

###

target: UniProt:P08482; assay: biochemical; type: tissue-based, Frontal cortex
Sequence (P08482 whole entry): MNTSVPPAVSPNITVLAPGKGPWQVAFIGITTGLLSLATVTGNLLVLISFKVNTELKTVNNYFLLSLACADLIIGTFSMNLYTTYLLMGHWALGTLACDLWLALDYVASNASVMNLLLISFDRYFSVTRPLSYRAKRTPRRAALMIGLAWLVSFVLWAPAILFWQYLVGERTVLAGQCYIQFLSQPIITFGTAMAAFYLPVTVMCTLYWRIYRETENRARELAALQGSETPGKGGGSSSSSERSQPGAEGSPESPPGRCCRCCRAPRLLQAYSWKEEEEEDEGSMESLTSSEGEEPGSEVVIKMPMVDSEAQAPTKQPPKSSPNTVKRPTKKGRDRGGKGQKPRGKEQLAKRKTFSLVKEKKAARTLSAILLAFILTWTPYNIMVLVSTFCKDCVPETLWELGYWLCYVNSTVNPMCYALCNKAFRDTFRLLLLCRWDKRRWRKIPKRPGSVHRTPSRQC
readout-type: Ki (nM)

CN1CCN([C@@H]2Cn3cccc3Sc3ccccc32)CC1 (stereo in doubt; (+)-6a)    2270
CN1CCN([C@@H]2Cn3cccc3Sc3ccc(Cl)cc32)CC1    287

A = CCN1CCN(C2Cn3cccc3Sc3ccc(F)cc32)CC1 (racemic)
B = OCCN1CCN(C2Cn3cccc3Sc3ccc(F)cc32)CC1 (racemic)
Of A and B , which one carries the higher reported Ki? The response must carry the label of the picked entry.
B
